Test system: foxtail, giant (giant foxtail, Setaria faberii)
Assay: Test A postemergence, foxtail, giant
Assay type: in vivo
Details: 125 g ai/ha, 0 to 100 scale
Recorded Plant response rating, Foxtail, Giant for the following compounds

O=C1NCC(/C=C/c2ccc(F)cc2)C1C(=O)Nc1ccccc1F (centres unmarked) :: 0
Cc1cccc(C#CC2CNC(=O)C2C(=O)Nc2ccccc2F)c1 (centres unmarked) :: 0
O=C1NCC(/C=C/c2ccccc2)C1C(=O)Nc1ccccc1F (centres unmarked) :: 20

Summary: O=C1NCC(/C=C/c2ccccc2F)C1C(=O)Nc1cccc(F)c1F (centres unmarked) , foxtail, giant (giant foxtail, Setaria faberii), Plant response rating, Foxtail, Giant = 20

Summary: O=C1NCC(C#Cc2ccc(F)cc2)C1C(=O)Nc1ccccc1F (centres unmarked) , foxtail, giant (giant foxtail, Setaria faberii), Plant response rating, Foxtail, Giant = 0

Where do the numbers come from? From patent US10906873B2.
